target.desc: T1, CTLA4-Fc (UniProt P16410 36-161, limits assumed)
T1 sequence (looked up): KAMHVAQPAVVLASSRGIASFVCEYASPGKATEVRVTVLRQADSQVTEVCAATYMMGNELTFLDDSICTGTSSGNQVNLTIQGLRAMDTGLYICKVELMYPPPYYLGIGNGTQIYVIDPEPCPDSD
method.notes: cell-based or functional assay
metric: IC50 (nM), IL-2 secreted by Jurkat cells co-cultured with CHO/CD80 cells, Experiment 2

MAb A1 (16A9E9) (antibody, V domains shown, also called murine antibody A1) VH: DVQLQESGPGLVKPSQSLSLTCSVTGDSITSGYYWNWIRQFPGNKLEWMGYISYDGINNYYPSLENRISITRDTSRNQFFLKLNSVTTEDTATYYCAREVVTPGVEVPAWYFDVWGTGTTVTVSS VL: DIVLTQSPTSLTVSLGQRAIISCKASQSVSFAGTGLMHWYQQKPGQQPKLLIYRASNLEAGVPTRFSGSGSRTDFTLNIHPVEEDDAATYYCQQSREYPWTFGGGTTLEIN
18.5 nM
MAb A4 (13F10D7) (antibody, V domains shown, also called Murine MAb A4; murine antibody A4) VH: EVQLRQSGPELVKPGTSVKISCKASGYKFTDHFINWVKQNHGKSLEWIGDINPNNGGTNSNQKFEGKATLTVDKSSSTAYMELRSLTSEDSAVYYCARLRREYFYAMDYWGQGTSVTVSS VL: DIVMTQAAFSNPVTLGTSASISCRSSKSLLHSNGITYLYWYLQKPGQSPQLLIYQMSNLASGVPDRFSSSGSGTDFTLRISRVEAEDVGVYYCAQNLELPLTFGAGTKLELK
13.2 nM

GET /values?readout=IC50 (nM), IL-2 secreted by Jurkat cells co-cultured with CHO/CD80 cells, Experiment 2&item= MAb A2 (7G10D3) (antibody, V domains shown, also called murine antibody A2) VH: QIQLVQSGPELKKPGETVKISCKASGYTFTTYGMSWVKQTPGKGLKWMGWINTYSGVPTYADDFKGRFAFSLETSASTAYLQINNLKNEDTATYFCARGRDYYGSSYRLFGVWGTGTTVTVSS VL: DIQMTQTTSSLSASLGDRVTISCRASQDISNYLNWYQQKPDGTVKLLIYYTSILNSGVPSKFSGSGSGTDYSLTISNLEQEDIATYFCQQGNTLPWTFGGGTKLEIK
22.3 nM

GET /values?readout=IC50 (nM), IL-2 secreted by Jurkat cells co-cultured with CHO/CD80 cells, Experiment 2&item= MAb A5 (32G4C12) (antibody, V domains shown, also called murine antibody A5) VH: QVQLQQSGPELVRPGASVKLSCKASGYTFTTYDINWVKQRPGQGLEWIGWIYPRDGSIIFNEKFKGKATLTVDTTSSTAYMELHSLTSEDSAVYFCARRGLLGPLDYWGQGTPLTVSS VL: DIVMTQSHKFMSTSVGDRVSITCKASQDVATTVAWYQQKPGQSPKLVIYWASTRHTGVPDRFTGSGSGTDFTLTISNVQSEDLADYFCQQYSSYPTFGVGTKLELK
16.6 nM

GET /values?readout=IC50 (nM), IL-2 secreted by Jurkat cells co-cultured with CHO/CD80 cells, Experiment 2&item= MAb A3 (32G12D2) (antibody, V domains shown, also called murine antibody A3) VH: QVQLQQPGAELVRPGSSVKLSCKASGYTFTSYWMHWVKQRPIQGLEWIGNIDPSDSETHYNQNFKDKATLTVDKSSSTAYLQLSSLTSEDSAVYYCARRYTSSSFDYWGQGTTLTVSS VL: DIQMTQTTSSLSASLGDRVTVSCRASQDIRNYLNWYQQKPDGTVKLLIYFTSKLHSGVPSRFSGSGSGTDYFLAISNLEQEDIATYFCQQGNTLPYTFGGGTKLEIK
14.9 nM
